Tested on: TMD-8 human activated B cell diffuse large B cell lymphoma cells
Test: TMD-8 survival assay (Cell Titer-Glo)
Type: cell-based
Conditions: TMD8, TMD-8 cells, 72 h
Consider the cut-off 2 nM. If the recorded EC50 is strictly smaller, the label is met; if not, the label is not met.

Sample answers from the record:
# Molecule, Test System, Classification
data = [
    ("CC#CC(=O)N[C@H]1C[C@@H](n2nc(-c3ccc(Oc4ccccc4)cc3F)c3c(N)ncnc32)C1 [Compound 7]", "TMD-8 human activated B cell diffuse large B cell lymphoma cells", "met"),
    ("CC#CC(=O)N(C)[C@H]1C[C@@H](n2nc(-c3ccc(Oc4ccccc4)cc3)c3c(N)ncnc32)C1 [Compound 4]", "TMD-8 human activated B cell diffuse large B cell lymphoma cells", "not met"),
    ("C=CC(=O)N[C@H]1C[C@@H](n2nc(-c3ccc(Oc4ccccc4)cc3F)c3c(N)ncnc32)C1 [Compound 6]", "TMD-8 human activated B cell diffuse large B cell lymphoma cells", "not met"),
]

Task: Record C=CC(=O)N(C)[C@H]1C[C@@H](n2nc(-c3ccc(Oc4ccccc4)cc3)c3c(N)ncnc32)C1 [Compound 5] : is its EC50 strictly below 2 nM?
Result: met

Task: Regarding CC#CC(=O)N[C@H]1C[C@@H](n2nc(-c3ccc(Oc4ccccc4)cc3)c3c(N)ncnc32)C1 [Compound 1] , kindly confirm whether its EC50 is beneath 2 nM.
Result: met

Task: EC50 strictly < 2 nM for this molecule? C=CC(=O)N[C@H]1C[C@@H](n2nc(-c3ccc(Oc4ccccc4)cc3)c3c(N)ncnc32)C1 [Compound 2]
Result: met

Task: Say whether its EC50 is strictly beneath 2 nM. Entry: C=CC(=O)N[C@H]1C[C@@H](n2nc(-c3ccc(Oc4ccc(F)cc4F)cc3)c3c(N)ncnc32)C1 [Compound 3]
Result: not met

* * *

Parameter GSH Reactivity GSH Conjugate at 60 minutes: see the listing below.
Assay: Formation of glutathione adducts (GSH reactivity, HPLC-UV)
Type: in vitro ADME
Conditions: 10 mM GSH, 20 micromolar test article, pH 7.4, 37° C.

Worked cases, GSH Reactivity GSH Conjugate at 60 minutes given:
# Compound, Result
measured = [
    ("CC#CC(=O)N[C@H]1C[C@@H](n2nc(-c3ccc(Oc4ccccc4)cc3F)c3c(N)ncnc32)C1", "5.9 % of total Peaks"),
    ("C=CC(=O)N(C)[C@H]1C[C@@H](n2nc(-c3ccc(Oc4ccccc4)cc3)c3c(N)ncnc32)C1", "28.9 % of total Peaks"),
    ("C=CC(=O)N[C@H]1C[C@@H](n2nc(-c3ccc(Oc4ccccc4)cc3F)c3c(N)ncnc32)C1", "12.6 % of total Peaks"),
]

Task: Tell me GSH Reactivity GSH Conjugate at 60 minutes reported for CC#CC(=O)N[C@H]1C[C@@H](n2nc(-c3ccc(Oc4ccccc4)cc3)c3c(N)ncnc32)C1
Result: 7.3 % of total Peaks

Task: Provide GSH Reactivity GSH Conjugate at 60 minutes value for the following compound: CC#CC(=O)N(C)[C@H]1C[C@@H](n2nc(-c3ccc(Oc4ccccc4)cc3)c3c(N)ncnc32)C1
Result: 8.4 % of total Peaks

Task: State its GSH Reactivity GSH Conjugate at 60 minutes for this compound: C=CC(=O)N1CCC[C@@H](n2nc(-c3ccc(Oc4ccccc4)cc3)c3c(N)ncnc32)C1 [Reference, reference compound]
Result: 31.7 % of total Peaks

Task: Assign GSH Reactivity GSH Conjugate at 60 minutes to the following record: C=CC(=O)N[C@H]1C[C@@H](n2nc(-c3ccc(Oc4ccccc4)cc3)c3c(N)ncnc32)C1
Result: 14.2 % of total Peaks

Task: Give a short answer stating reported GSH Reactivity GSH Conjugate at 60 minutes for C=CC(=O)N[C@H]1C[C@@H](n2nc(-c3ccc(Oc4ccc(F)cc4F)cc3)c3c(N)ncnc32)C1 .
Result: 12.6 % of total Peaks

* * *

This listing pairs molecules with measured Cmax.
Experiment: Mouse plasma pharmacokinetics
Type: in vivo, mouse (CD-1)
Settings: male, CD-1, mouse, mice, oral 10 mg/kg, free base
Description: Plasma pharmacokinetic studies were conducted in CD1 mice to compare the plasma exposure following oral and intravenous administration of the free-base form of each compound to mice and to calculate bioavailability. Male CD-1 mice (25-30 g on delivery; Charles River) were used for mouse PK studies. […] Concentrations of compound in rodent plasma samples were determined by LC-MS-MS. […] Using a positive ionization mode, the MRM transition monitored was set at 567.25→1388.600. […]
API: value field is a number in ng/mL; no unit string.

Sample answers from the record:
# Molecule, Cmax, ng/mL
rows = [
    ("CC#CC(=O)N[C@H]1C[C@@H](n2nc(-c3ccc(Oc4ccccc4)cc3)c3c(N)ncnc32)C1", 1280),
    ("C=CC(=O)N[C@H]1C[C@@H](n2nc(-c3ccc(Oc4ccccc4)cc3)c3c(N)ncnc32)C1", 1350),
]

From here, focus on the item given below.
Task: Report Cmax, nothing else, for this molecule: C=CC(=O)N1CCC[C@@H](n2nc(-c3ccc(Oc4ccccc4)cc3)c3c(N)ncnc32)C1 [Reference, reference compound]
Result: 219

* * *

Test: Mouse plasma pharmacokinetics
Type: in vivo, mouse (CD-1)
Conditions: male, CD-1, mouse, mice, oral 10 mg/kg vs intravenous 3 mg/kg
Readout Name: bioavailability (%)
A number alone suffices; assume %.

// below: answered compounds
# Compound, Readout Name, Numeric Readout
data = [
    ("C=CC(=O)N[C@H]1C[C@@H](n2nc(-c3ccc(Oc4ccccc4)cc3)c3c(N)ncnc32)C1", "bioavailability", 45),
    ("C=CC(=O)N1CCC[C@@H](n2nc(-c3ccc(Oc4ccccc4)cc3)c3c(N)ncnc32)C1 [Reference, reference compound]", "bioavailability", 9.8),
]

Kindly consider the entry below.
Task: Return reported bioavailability. Input compound: CC#CC(=O)N[C@H]1C[C@@H](n2nc(-c3ccc(Oc4ccccc4)cc3)c3c(N)ncnc32)C1
Result: 52

* * *

Assay: Mouse plasma pharmacokinetics
Type: in vivo, mouse (CD-1)
Conditions: male, CD-1, mouse, mice, oral 10 mg/kg, free base, read-out: Oral AUC
Experimental: Plasma pharmacokinetic studies were conducted in CD1 mice to compare the plasma exposure following oral and intravenous administration of the free-base form of each compound to mice and to calculate bioavailability. Male CD-1 mice (25-30 g on delivery; Charles River) were used for mouse PK studies. […] Concentrations of compound in rodent plasma samples were determined by LC-MS-MS. […] Using a positive ionization mode, the MRM transition monitored was set at 567.25→1388.600. […]
Entries and their measured AUC follow.
Report only the number, with the unit ng·h/mL understood.

Example entries and their recorded answers appear below.
# Compound, Numeric Readout
records = [
    ("CC#CC(=O)N[C@H]1C[C@@H](n2nc(-c3ccc(Oc4ccccc4)cc3)c3c(N)ncnc32)C1", 1450),
    ("C=CC(=O)N[C@H]1C[C@@H](n2nc(-c3ccc(Oc4ccccc4)cc3)c3c(N)ncnc32)C1", 1440),
]

Next compound, please.
Task: Output measured AUC for this item: C=CC(=O)N1CCC[C@@H](n2nc(-c3ccc(Oc4ccccc4)cc3)c3c(N)ncnc32)C1 [Reference, reference compound]
Result: 349

* * *

Test: in vitro
Conditions: human, liver microsomes
Readout Name: microsomal CLint at 1 μM (µL/min/mg)
Answer with a number only, understood to be in µL/min/mg.

Task: Assign microsomal CLint at 1 μM to the following record: C=CC(=O)N[C@H]1C[C@@H](n2nc(-c3ccc(Oc4ccccc4)cc3)c3c(N)ncnc32)C1 [Compound 2]
Result: 15.6

Task: Indicate the recorded microsomal CLint at 1 μM value for this compound: CC#CC(=O)N[C@H]1C[C@@H](n2nc(-c3ccc(Oc4ccccc4)cc3)c3c(N)ncnc32)C1 [Compound 1]
Result: 34.9

* * *

Molecular target: EGFR (Homo sapiens)
Sequence (P00533 25-1210): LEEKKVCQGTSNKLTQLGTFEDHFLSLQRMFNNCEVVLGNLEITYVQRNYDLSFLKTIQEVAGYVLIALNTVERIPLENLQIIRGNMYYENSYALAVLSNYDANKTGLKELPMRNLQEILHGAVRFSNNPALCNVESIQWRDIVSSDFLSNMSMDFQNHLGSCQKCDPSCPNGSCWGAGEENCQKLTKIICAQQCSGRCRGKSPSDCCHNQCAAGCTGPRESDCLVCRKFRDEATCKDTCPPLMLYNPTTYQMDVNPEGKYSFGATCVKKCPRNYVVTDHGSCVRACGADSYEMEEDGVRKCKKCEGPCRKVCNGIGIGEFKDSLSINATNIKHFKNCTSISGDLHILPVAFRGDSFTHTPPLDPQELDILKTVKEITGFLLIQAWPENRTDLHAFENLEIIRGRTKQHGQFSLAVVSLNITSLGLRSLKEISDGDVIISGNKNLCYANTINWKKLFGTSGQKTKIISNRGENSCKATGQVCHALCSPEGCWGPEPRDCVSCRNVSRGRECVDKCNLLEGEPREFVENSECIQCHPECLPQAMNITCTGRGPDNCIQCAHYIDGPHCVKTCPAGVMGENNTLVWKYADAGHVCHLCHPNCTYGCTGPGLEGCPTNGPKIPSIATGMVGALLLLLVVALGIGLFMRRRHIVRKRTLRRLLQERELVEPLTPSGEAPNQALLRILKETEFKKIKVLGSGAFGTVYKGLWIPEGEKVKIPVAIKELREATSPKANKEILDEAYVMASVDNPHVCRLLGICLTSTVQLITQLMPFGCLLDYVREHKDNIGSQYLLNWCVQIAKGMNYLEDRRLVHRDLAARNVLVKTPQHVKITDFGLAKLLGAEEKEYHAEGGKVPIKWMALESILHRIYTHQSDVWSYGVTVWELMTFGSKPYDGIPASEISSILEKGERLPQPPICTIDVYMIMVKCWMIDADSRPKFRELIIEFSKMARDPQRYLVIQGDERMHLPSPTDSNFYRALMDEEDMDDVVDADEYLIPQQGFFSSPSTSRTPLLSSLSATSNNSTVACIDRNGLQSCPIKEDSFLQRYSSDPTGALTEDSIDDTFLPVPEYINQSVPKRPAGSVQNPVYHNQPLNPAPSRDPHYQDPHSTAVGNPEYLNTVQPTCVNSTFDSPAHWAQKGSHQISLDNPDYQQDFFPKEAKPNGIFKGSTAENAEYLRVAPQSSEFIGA
Assay: Inhibition of cellular EGFR (EGF-stimulated EGFR autophosphorylation in MDA-468 cells)
Conditions: 1 h pretreatment, 10 ng/mL EGF 5 min, phospho-EGFR/EGFR ratio
Readout Name: EC50 (µM)
Write down the numeric answer in µM and omit the unit.

# Molecule, Units Symbol, EC50
rows = [
    ("CC#CC(=O)N[C@H]1C[C@@H](n2nc(-c3ccc(Oc4ccccc4)cc3)c3c(N)ncnc32)C1", "µM", 5.96),
]

Task: Return reported EC50 for target or system EGFR (Homo sapiens), item C=CC(=O)N[C@H]1C[C@@H](n2nc(-c3ccc(Oc4ccccc4)cc3)c3c(N)ncnc32)C1 .
Result: 0.376

* * *

Below are pIC50 values measured for human BTK (Homo sapiens, UniProt Q06187).
The meaning of pIC50 here: minus log10 of the concentration in molar units.

# Molecule, pIC50
records = [
    ("C=CC(=O)N(C)[C@H]1C[C@@H](n2nc(-c3ccc(Oc4ccccc4)cc3)c3c(N)ncnc32)C1", 9.15),
    ("C=CC(=O)N[C@H]1C[C@@H](n2nc(-c3ccc(Oc4ccc(F)cc4F)cc3)c3c(N)ncnc32)C1", 8.00),
    ("CC#CC(=O)N(C)[C@H]1C[C@@H](n2nc(-c3ccc(Oc4ccccc4)cc3)c3c(N)ncnc32)C1", 9.00),
    ("C=CC(=O)N[C@H]1C[C@@H](n2nc(-c3ccc(Oc4ccccc4)cc3F)c3c(N)ncnc32)C1", 8.52),
    ("CC#CC(=O)N[C@H]1C[C@@H](n2nc(-c3ccc(Oc4ccccc4)cc3F)c3c(N)ncnc32)C1", 9.00),
]

Now, please, on to the next molecule.
Task: Find the measured pIC50 of C=CC(=O)N[C@H]1C[C@@H](n2nc(-c3ccc(Oc4ccccc4)cc3)c3c(N)ncnc32)C1 with human BTK (Homo sapiens, UniProt Q06187) as test system.
Sequence (Q06187 whole entry): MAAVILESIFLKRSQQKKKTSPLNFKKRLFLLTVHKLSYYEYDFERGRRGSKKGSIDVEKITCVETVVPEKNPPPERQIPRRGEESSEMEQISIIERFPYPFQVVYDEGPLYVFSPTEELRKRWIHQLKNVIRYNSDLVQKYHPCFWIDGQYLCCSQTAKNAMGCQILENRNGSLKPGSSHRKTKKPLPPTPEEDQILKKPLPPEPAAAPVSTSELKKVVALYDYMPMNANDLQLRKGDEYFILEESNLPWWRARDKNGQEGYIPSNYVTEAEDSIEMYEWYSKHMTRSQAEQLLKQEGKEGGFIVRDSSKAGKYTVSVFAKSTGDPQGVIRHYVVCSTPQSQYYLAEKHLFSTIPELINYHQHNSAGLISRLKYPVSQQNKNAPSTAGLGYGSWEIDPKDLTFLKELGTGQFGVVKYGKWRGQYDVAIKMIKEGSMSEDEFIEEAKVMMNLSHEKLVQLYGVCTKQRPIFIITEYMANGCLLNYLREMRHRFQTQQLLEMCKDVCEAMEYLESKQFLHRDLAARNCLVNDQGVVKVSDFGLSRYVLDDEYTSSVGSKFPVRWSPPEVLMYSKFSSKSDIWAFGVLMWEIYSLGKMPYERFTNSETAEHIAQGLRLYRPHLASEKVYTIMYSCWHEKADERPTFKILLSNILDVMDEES
Result: 8.52
